# Test system: Bacillus subtilis
# Experimental Protocol: Antibacterial activity against Bacillus subtilis ATCC6633 assessed as bacterial growth inhibition incubated for 16 hrs by broth microdilution assay
# Assay type: functional
Property Name: MIC

### Prompt // query MIC value for entry CCC/C=C\c1ccccc1/C=C/C(=O)O
### Response > 100 µM

### Prompt // query MIC value for entry CCC/C=C\c1ccccc1/C=C/C(=O)N[C@@H](Cc1ccc(O)cc1)C(=O)O
### Response > 100 µM

### Prompt // query MIC value for entry COC(=O)[C@H](Cc1ccc(O)cc1)NC(=O)/C=C/c1ccccc1OC
### Response 100 µM

### Prompt // query MIC value for entry COC(=O)[C@H](Cc1ccc(O)cc1)NC(=O)/C=C/c1ccccc1C(F)(F)F
### Response > 100 µM

### Prompt // query MIC value for entry COC(=O)[C@H](Cc1ccc(O)cc1)NC(=O)/C=C/c1ccccc1C
### Response 100 µM

### Prompt // query MIC value for entry CCC/C=C\c1ccccc1/C=C/C(=O)N[C@@H](C)C(=O)OC
### Response 100 µM

### Prompt // query MIC value for entry CC1(C)S[C@@H]2[C@H](NC(=O)Cc3ccccc3)C(=O)N2[C@H]1C(=O)O
### Response 10 µM

### Prompt // query MIC value for entry CCC/C=C\c1ccccc1/C=C/C(=O)N[C@H](Cc1ccc(O)cc1)C(=O)OC
### Response 12.5 µM

### Prompt // query MIC value for entry CCC/C=C\c1ccccc1/C=C/C(=O)N[C@@H](Cc1c[nH]c2ccccc12)C(=O)OC
### Response > 100 µM

### Prompt // query MIC value for entry COC(=O)[C@H](Cc1ccc(O)cc1)NC(=O)/C=C/c1ccccc1
### Response > 100 µM

### Prompt // query MIC value for entry CCC/C=C\c1ccccc1/C=C/C(=O)N[C@H](Cc1ccc(O)cc1)C(=O)O
### Response > 100 µM

### Prompt // query MIC value for entry COC(=O)[C@H](Cc1ccc(O)cc1)NC(=O)/C=C/c1ccccc1Br
### Response 100 µM

### Prompt // query MIC value for entry CCC/C=C\c1ccccc1/C=C/C(=O)N[C@@H](Cc1ccccc1)C(=O)OC
### Response > 100 µM

### Prompt // query MIC value for entry COC(=O)[C@H](Cc1ccc(O)cc1)NC(=O)/C=C/c1ccccc1F
### Response 100 µM

### Prompt // query MIC value for entry CCC/C=C\c1ccccc1/C=C/C(=O)N[C@@H](Cc1ccc(O)cc1)C(=O)OC
### Response 12.5 µM

----------
# Experimental Protocol: Hemolytic activity against chicken erythrocytes up to 100 uM incubated for 1 hr by absorbance based assay
# Format: toxicity, cell-based, Gallus gallus, Erythrocyte
# Settings: read-out: Activity
Property Name: hemolysis at 1 h, up to 100 µM

### Prompt // query hemolysis at 1 h, up to 100 µM value for entry CCC/C=C\c1ccccc1/C=C/C(=O)N[C@@H](Cc1ccc(O)cc1)C(=O)OC
### Response < 5%

----------
# Experimental Protocol: Hemolytic activity against chicken erythrocytes at 50 uM incubated for 1 hr by absorbance based assay
# Type: toxicity, cell-based, Gallus gallus, Erythrocyte
# Settings: read-out: Activity
Property Name: hemolysis at 1 h, 50 µM

### Prompt // query hemolysis at 1 h, 50 µM value for entry CCC/C=C\c1ccccc1/C=C/C(=O)N[C@H](Cc1ccc(O)cc1)C(=O)OC
### Response > 5%
